# System: MV4-11
# test_protocol: CellTox Green cytotoxicity fluorescence relative to DMSO vehicle (fold of vehicle RFU); higher = more cell death (loss of membrane integrity), active = 2 or more
# test_context: 0.01 µM; 24 h
Would you mind labelling by CellTox Green cytotoxicity fluorescence? At or over 1 is 1.0, under is 0.0.

Example entries begin here.
molecule: CC(C)CC(NC(=O)C(Cc1ccccc1)CC(O)C(Cc1ccccc1)NC(=O)OC(C)(C)C)C(=O)NC(Cc1ccccc1)C(N)=O (stereo not drawn)
cat: 0.0

molecule: CC1(C)CC[C@]2(NC(=O)C(C)(F)F)CC[C@]3(C)[C@H](C(=O)C=C4[C@@]5(C)C=C(C#N)C(=O)C(C)(C)[C@@H]5CC[C@]43C)[C@@H]2C1 [Omaveloxolone]
cat: 0.0

molecule: CC(C)c1cc2c(N3CCN(C4=NCC(C)(C)S4)CC3)ncnc2s1 [MI-3 (Menin-MLL Inhibitor)]
cat: 0.0

molecule: CNC(=O)c1ccccc1Nc1cc(Nc2ccc(N3CCOCC3)cc2OC)ncc1C(F)(F)F
cat: 0.0

molecule: Nc1nc(F)nc2c1ncn2[C@@H]1O[C@H](CO)[C@@H](O)[C@@H]1O [Fludarabine]
cat: 0.0

molecule: C=CC(=O)N1CC(=Cc2ccc([N+](=O)[O-])cc2)C(=O)C(=Cc2ccc([N+](=O)[O-])cc2)C1
cat: 0.0

molecule: CC(C)(C)C[C@@H]1N[C@@H](C(=O)N[C@H]2CC[C@H](O)CC2)[C@H](c2cccc(Cl)c2F)[C@]12C(=O)Nc1cc(Cl)ccc12
cat: 1.0

molecule: O=C1CCC(N2C(=O)c3ccccc3C2=O)C(=O)N1 (stereo not drawn) [Thalidomide]
cat: 0.0

## Input Confirm if CellTox Green cytotoxicity fluorescence reported for the molecule CC1(C)CCC(c2ccc(Cl)cc2)=C(CN2CCN(c3ccc(C(=O)NS(=O)(=O)c4ccc(N[C@H](CCN5CCOCC5)CSc5ccccc5)c(S(=O)(=O)C(F)(F)F)c4)cc3)CC2)C1 [Navitoclax] is 1 or above.
## Output 0.0

## Input Confirm if CellTox Green cytotoxicity fluorescence reported for the molecule CN1CCN(Cc2ccc(Nc3ncc(Cl)c(Nc4ccccc4S(=O)(=O)N(C)C)n3)cc2)CC1 is 1 or above.
## Output 0.0

## Input Confirm if CellTox Green cytotoxicity fluorescence reported for the molecule CCCCNc1ncc2c(-c3ccc(CN4CCN(C)CC4)cc3)cn([C@H]3CC[C@H](O)CC3)c2n1 is 1 or above.
## Output 1.0

## Input Confirm if CellTox Green cytotoxicity fluorescence reported for the molecule CCS(=O)(=O)N1CCN(c2ccc(Nc3ncc(C(N)=O)c(NC4CC4)n3)cc2)CC1 [Cerdulatinib] is 1 or above.
## Output 0.0

Ref: the supplement of paper PMC7595190
